- Assay Method Text: protein stability index of a GFP-peptide fusion (GPS, HEK-293T) (PSI 1-6); higher = more stable;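 also: 24-mer peptide tiles fused after GFP, lentivirally expressed, FACS-sorted into six equal bins by GFP/DsRed ratio, decoded by Illumina sequencing, PSI is the read-weighted mean bin number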
- Condition Context: treatment: MLN4924 1 uM, 8 h; c terminus: a fixed tail appended
Each entry falls into one class according to its protein stability index; the ranges are class A (below 3), class B (3 to below 4), class C (4 or more)

Macromolecule Sequence	Class Assignment
KWLLWTEHQYRLPPMGKAFQELAG [SPDEF]	class A
KKSELLQRITQEQEKKLSFIEALI [TRIM63]	class A
VKEPCSLPMLSVDMENKENGSVGV [SAMD13]	class C
PVTERQIEREHLIQLRRWQETRGE [TBC1D10A]	class C
GEVVKIPSRVHGSLEPFRPQQAPQ [PWWP2B]	class C
LDRFLSLEPVKKSRLQLLGATCMF [CCND1]	class A
DLYKKVKKNSSPPLSLYGQLLWRE [CRY1]	class A
GVFGFFATIVFATDFYLIFNDVAK [CMTM3]	class B
AKADTTSTVTPVPGQEKGSALEGR [EHMT1]	class C
PGPHSAKQDSYEQGDSSQQSLKGH [ZC2HC1C]	class C
KEGPMIHSGSVVGAGLPQFQSISL [CLCN6]	class A
PHYELCTLRGTGATADFADVADDF [NETO1]	class C
DLVDLFDGTSQSTGGSADLFGGFA [CLINT1]	class B

###

- Assay Method Text: protein stability index of a GFP-peptide fusion (GPS, HEK-293T) (PSI 1-6); higher = more stable
- Condition Context: treatment: DMSO; c terminus: a fixed tail appended
Experimental Readout: protein stability index

Macromolecule Sequence	Experimental Readout	Reading
FQVLCSINSIIHNPRAPVIIYKQT [CEP70]	protein stability index	2.76
LQSFEDLASISTYGFRGEALASIS [MLH1]	protein stability index	2.78
GSLEKALPIIQSNQVSSNSWGIAG [DLC1]	protein stability index	3.35
DHSQRICEVWACNLDEEMKKIRQV [CNOT7]	protein stability index	3.43
AVKLYNSGDFRSSTEDMERALSEY [P3H4]	protein stability index	4.57
LDFLPKDVKKEKLSPDIMKDAYVQ [TENT5D]	protein stability index	3.96
GEGLNVIQQTTRYFSTPQTMDLFL [NANOGP8]	protein stability index	2.09
IELLTGETWNPFKLQYQLRNVRER [GOLPH3L]	protein stability index	2.29
LEMRRRCTWSIFQSIEYAGQQDQV [PPEF2]	protein stability index	1.92
PGNRTCTGTSKRYQLCRVQECPPD [ADAMTSL2]	protein stability index	3.61
SPRGPAPGEEKFENLEGVPSVCSE [ZNF263]	protein stability index	5.41
RAGPDSAGIALYSHEDVCVFKCSV [CARM1]	protein stability index	2.35
EAAFHPIEEYMVHVEEHFQLLARR [FUT8]	protein stability index	3.06

###

- Assay Method Text: protein stability index of a GFP-peptide fusion (GPS, HEK-293T) (PSI 1-6); higher = more stable
- Condition Context: treatment: MLN4924 1 uM, 8 h; c terminus: a fixed tail appended
Class assignment keyed on protein stability index, ranges low = under 3, medium = from 3 up to 4, high = 4 and over

Macromolecule Sequence	Class Assignment
SPPKSPRTTVHDKSAHQTHSSWTP [DNAJC4]	high
AQQFALMAPLLFNGCRSGEIFAID [DCAF4]	low
ILALELICSLICLLIYTVKIRRFN [TMEM192]	medium
VLYALRSFDYEQFHELQMQVTASD [PCDHGA10]	low
TDATAFWWGEWTKWTACSRSCGGG [ADAMTSL2]	low
AKGWGPCYSRQFITSCPCWLEILL [SMAD6]	low
VPIPTVNQYLYFLFAPTLIYRDSY [SOAT1]	medium
KVQDALQNQSDSLLALAGAVQRLE [SCARA5]	medium
PQQQHHKAKRNRTCRPPSSSESSS [ANKRD17]	high
RQNLSKSWLDVQVSNTYVKQKTSA [TPD52L3]	medium
PANVDASVMYRKWKESKGKDREYT [CDC34]	high
DLDSRTDSDIPEIPPSSDRTPEIL [CDS1]	high
IIPQVPLFNILAKFNGITEKEYKT [USP39]	low
SREFFNRRGELRHITKLKPWSLFD [SRPK2]	low
MKACQEDDVRLLCHLTPSIYTEFP [INTS3]	low
TFWKEDKAFWKEDNALWERDRNLL [CCDC70]	medium
NYFVTMFDDYSATLPLTLIVILEN [SLC6A17]	low
LEGALHQAKEELARMLREYQELMS [KRT71]	medium
NDSDHQSSTSPLMEGTPTIKSKKK [VPS39]	high
PIRNRAFYMEEGVPYCERDYEKMF [PDLIM7]	medium
CPPLPAGVSFHIDSAELEPGSQTA [FBXO34]	high
KTTIPEEEEEEEEAAGVVVEEELF [LMNB1]	high
VFSYFLATDMISIFEPPVRNSGII [EFHC1]	medium
AHKMKFSDLFSLAEEYEDSSTKPP [INTS3]	high

###

protein stability index for assorted sequences
- Assay Method Text: protein stability index of a GFP-peptide fusion (GPS, HEK-293T) (PSI 1-6); higher = more stable
- Condition Context: treatment: MLN4924 1 uM, 8 h; c terminus: a fixed tail appended

Macromolecule Sequence	protein stability index
STPFKPLALKTPPRVLTLSERPLD [MFF]	4
LELPEDEEEKKKMEESKAKFENLC [HSP90AB1]	5.3
ALLPSLSHCSQLTTLSFYGNSISI [PRAME]	3.14
YVYKPVMNQTCCPQYTIRCRPLQF [ATE1]	2.3
KLEISTKEVPVVHTETKTITYESS [EPB41L3]	4.64
AGIMLLALVCLLSCLLPSSEAKLY [SPACA3]	3.25
HLVIQNLFEGMIWFLVPISSVICN [CDS1]	3.25
RELDAISTNEEEKEENEAESDVKH [PRIM1]	5.62
ALGDIREVQKLVESGVDVNSQNEV [ANKRD40]	5.24
AQDDDRLREERKKAKKNKDKYVGV [CLINT1]	5.48
KYDMEVRVQKTSKELEDMNQKLFD [TNNI2]	4.73
RRGVSDWDLRMKLHDRGAQVIHPQ [DNAAF3]	3.55
LRGSYNSLHDGSDGLDGISVGSYL [LURAP1L]	3.1

###

- Assay Method Text: protein stability index of a GFP-peptide fusion (GPS, HEK-293T) (PSI 1-6); higher = more stable
- Condition Context: treatment: MLN4924 1 uM, 8 h; c terminus: a fixed tail appended
Items are presented alongside their recorded protein stability index.

Macromolecule Sequence	protein stability index
PCHPTVKNWRNFASKWGMSYDELC [EDARADD]	2.54
EVLRRLTSSVSCALDEAAAALTRM [ANKRD17]	2.1
MQSARGPTPSSPLPSVPVSVPASD [PLEKHN1]	4.79
KRRPKAQPTTLVLPPQYVDDVISR [MED27]	4.06
GTADGADLRTVDPETQARLEALLE [ANKRD17]	4.5
SRVILEIDNARLAADDFRLKYENE [KRT15]	3.7
MDSGTRPVGSCCSSPAGLSREYKL [RIT1]	3.3

###

Listed next: entries and their corresponding protein stability index.
- Assay Method Text: protein stability index of a GFP-peptide fusion (GPS, HEK-293T) (PSI 1-6); higher = more stable
- Condition Context: treatment: DMSO; c terminus: a fixed tail appended
Experimental Readout: protein stability index

Macromolecule Sequence	Experimental Readout	Reading
TCSFNPGVIVANMTEWKHQRITKQ [GLT8D2]	protein stability index	3.12
GVVQALIVGYAFHFPHLLSPQIQR [TMEM175]	protein stability index	3.53
MQSARGPTPSSPLPSVPVSVPASD [PLEKHN1]	protein stability index	4.78
RLVDRDSVWGYDLGLRSLIPAVLT [MYORG]	protein stability index	2.25
EEPSNKRVRPLARVTSLANLISPV [NET1]	protein stability index	3.43
KIWRTPNGKTIEMDTQFTIRAREL [IQUB]	protein stability index	2.55
FEEFVHYLQDHEKKLRLVFKSLDK [SLC25A25]	protein stability index	2.18
YKIVKPLWTSFIQSVSYSKLLSVI [P2RY14]	protein stability index	2.06
FTQSGPIVSRATGRCLEVEMSKDA [GALNT9]	protein stability index	2.71
SGEELHELFHTIDTHNTNNLDTEE [NECAB1]	protein stability index	5.12
LRGALQQGEAFQRALESELQQLRA [PBXIP1]	protein stability index	3.56
PLYTLIDVLKYSYVRLVCKDVRAP [ZSWIM9]	protein stability index	2.84
SRETQRTPMNHQKAVNDETCKASH [FBXO34]	protein stability index	5.06
GFEYDGKINAWDLYYYMTQTEELK [NLN]	protein stability index	2.81
ASPRRLSNVSSSGSINLLESPQLA [MAP2]	protein stability index	4.2
LELPEDEEEKKKMEESKAKFENLC [HSP90AB1]	protein stability index	5.46
FKHTLSISRALLSDVVPEKERPLV [MFSD9]	protein stability index	3.04
MAQPLCIRALLNLHTDVGSVRMRR [NEK8]	protein stability index	2.48
NAEMKSAMRKLWSKKVSLAGKWLY [OR4A15]	protein stability index	3.85
PAAGESLSGTRESLAQGPDAATTD [TBC1D10A]	protein stability index	5.36
IYSLRNKEFKSALCKIVRRTISLL [OR10K2]	protein stability index	2.74
TREAHRESSVPVTPSVPPPASQHS [FBF1]	protein stability index	4.94
EPLVLYNQNLSNRPSFNRTPIPWL [MYOZ1]	protein stability index	2.39
QTPILEGRSGPGCAVLDDSIYLVG [KLHL14]	protein stability index	2.7
GGYTPDLKMSYSRGLIPVKRGPSS [RBMY1A1]	protein stability index	3.9
RLLSDATVEKDESHAGKVVLRSWY [FAM50A]	protein stability index	3.02
